Source listed as paper doi:10.1101/2025.03.23.644840v2.

- study.target: Anc2
- protocol.summary: isothermal titration calorimetry
- experimental.conditions: 25 °C; 20 mM HEPES, 150 mM NaCl, 2% glycerol, pH 8; 1:1 model
pKd: −log10 of the molar value.

compound: CO[C@@H]1O[C@H](CO)[C@H](O)[C@H](O)[C@H]1O [BMDG]
pKd: 2.66

---

- study.target: Anc3
- protocol.summary: isothermal titration calorimetry
- experimental.conditions: 25 °C; 20 mM HEPES, 150 mM NaCl, 2% glycerol, pH 8; 1:1 model
pKd: −log10 of the molar value.
measured.metric: pKd

compound.smiles: CO[C@@H]1O[C@H](CO)[C@H](O)[C@H](O)[C@H]1O
measured.metric: pKd
recorded.result: 2.60
